B1: SLC19A2 (parent)
chain: IYPVWTYSYLVLLFPVFLATDYLR

variants of: B1; test: protein stability index of a GFP-peptide fusion (GPS, HEK-293T) (PSI 1-6); higher = more stable; conditions: c terminus: a fixed tail appended;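 note: lentivirally expressed fusions sorted by FACS into six bins by GFP to DsRed ratio, PSI derived from sequencing read proportions per bin multiplied by bin number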
Parameter: protein stability index. Scope: all listed entries.

variant: A19D
protein stability index: 2.38
--
variant: V16T
protein stability index: 2.15
--
variant: L23D
protein stability index: 2.96

## Task Can you look up the measured protein stability index of S8G for me?
## Result 2.84

## Task Follow-up item: V16I
## Result 3.52
